Examples of molecules with documented TGI follow.
tested on: UACC-62 melanoma; assay: NCI tumour cell line growth inhibition, 48 h

Example cases with answers are listed next.
Sample C=C(Cl)C(Cl)(CCl)CCC(Br)C(C)(C)Br (stereo not given) — what was its TGI?
> 10 µM

Next molecule: CC(C)(C)N/N=C(\C(=O)NC1=C(Cl)C(=O)c2ccccc2C1=O)C1C=CCS1(=O)=O (stereo not given)
9.17 µM

Next molecule: C/C(=C/CC[C@]1(CO)CC[C@]2(C)[C@H](CC[C@@H]3[C@@]4(C)CC[C@H](OC5OC(CO)C(O)C(O)C5OC5OC(CO)C(O)C(O)C5O)C(C)(C)[C@@H]4CC[C@]32C)[C@H]1O)CO (stereo not given in full)
> 100 µM

Next molecule: c1ccc(OCc2nnc3n2N=C(c2ccccc2)CS3)cc1
> 100 µM

Next molecule: NC(=O)NC1C(C(=O)O)N(Cc2ccccc2)C(=O)N1Cc1ccccc1 (stereo not given)
> 100 µM

Next molecule: COC(=O)[C@H](Cc1cn(C)cn1)NC(=O)[C@H](C)NC(=O)Nc1cc(C(F)(F)F)cc(C(F)(F)F)c1
> 10 µM

Read the next record carefully.
Sample COc1ccc(-c2c3c(nc4n[nH]c(-c5ccc(Cl)cc5)c24)-c2ccccc2C(=O)C3=O)cc1 — what was its TGI?
3.85 µM

###

Examples of compounds with documented TGI follow.
system: HS 578T breast; assay: NCI tumour cell line growth inhibition, 48 h

Example cases with answers are listed next.
Sample C(=Nc1ccc(-c2nc3ccccc3s2)cc1)c1ccc[nH]1 — what was its TGI?
53.4 µM

Next compound: Cc1ccc2c(c1)nc1n2C(N)=Nc2ccccc2S1
> 100 µM

Next compound: O=C(Nc1ccc(S(=O)(=O)/N=c2\ncccn2C(=O)C(C(F)(F)F)C(F)(F)F)cc1)C(C(F)(F)F)C(F)(F)F
> 100 µM

***
Sample C/C(=C/CC[C@]1(CO)CC[C@]2(C)[C@H](CC[C@@H]3[C@@]4(C)CC[C@H](OC5OC(CO)C(O)C(O)C5OC5OC(CO)C(O)C(O)C5O)C(C)(C)[C@@H]4CC[C@]32C)[C@H]1O)CO (some centres not stated) — what was its TGI?
> 100 µM

Next compound: CCCCOC1OC(COC(=O)C(C)C)C(OC(=O)C(C)C)C(O)C1OC1OC(C)C(OC(=O)CCC)C(OC(=O)C(C)C)C1O (configuration not stated)
39.7 µM

Next compound: O=C(NO)NCCCl
> 100 µM

Next compound: O=C1C(c2c(O)[nH]c3ccc(Br)cc23)=Nc2ccc(Br)cc21
> 100 µM

###

test system: SN12C renal; assay: NCI tumour cell line growth inhibition, 48 h
property: TGI (µM)
Your answer should be a plain number; it is taken to be in µM.

Example cases with answers are listed next.
Sample COC(=O)C(C(=O)OC)C(Br)C(Br)C(Br)c1ccccc1 (stereo unspecified) — what was its TGI?
27.3

Next compound: C[C@@H]1CC(=O)C[C@@H]2CC[C@H]3[C@@H]4CC[C@H](OC(=O)c5cccc6cc7ccccc7nc56)[C@H]4CC[C@@H]3[C@H]21
33.1

Next compound: O=C(CC1C=Cc2ccccc2N1C(=O)c1ccccc1)c1ccccc1 (stereo unspecified)
45.9

Next compound: O=C1N(Cc2ccccc2Cl)c2ccccc2C12NN=C(c1cccc(Cl)c1)S2 (stereo unspecified)
3.92

Next compound: Cc1nc2cc(Nc3nc(Nc4ccc(F)cc4)nc(N4CCOCC4)n3)ccc2n1Cc1ccccc1
27.4

Next compound: CC(=O)NC(C=O)C(O[C@H](C)C(=O)NC(C)C(=O)NC(CCC(N)=O)C(=O)OCc1ccccc1)C(O)C(O)COC(=O)CCNc1c2ccccc2nc2cccc([N+](=O)[O-])c12 (stereo partly specified)
5.62

***
Sample Clc1ccc(C[P+](c2ccccc2)(c2ccccc2)c2ccccc2)cc1Cl — what was its TGI?
15.3

Next compound: Cc1cccc2c3c(sc12)C(c1ccc(F)cc1)C(C#N)=C(N)O3 (stereo unspecified)
11.7

Next compound: Cc1ccc(C2(c3ccc(F)cc3)OC(=O)c3ccccc32)c(O)c1 (stereo unspecified)
27.9
